test: N-octanol-phosphate buffer distribution coefficient, log D in three buffered solution by shake flask method; type: physicochemical
MEASURE: logD

Exercise: Any idea what logD was measured for [18F]CCCC1OC2(CCN(Cc3ccccc3)CC2)c2ccccc21 (stereo unspecified) ?
Key: 3.03

====

test: Ratio of drug level in cerebellum to plasma in CD1 mouse at 400 to 600 kBq, iv after 5 mins post-injection; format: ADME, organism-based
MEASURE: Kp at 5 min
The response must contain the number and no unit.

Exercise: Any idea what Kp at 5 min was measured for [18F]CCCC1OC2(CCN(Cc3ccccc3)CC2)c2ccccc21 (stereo unspecified) ?
Key: 2.49

====

target: Delta-type opioid receptor (Homo sapiens, UniProt P41143); experiment: Binding affinity to delta opioid receptor
Sequence (P41143 whole entry): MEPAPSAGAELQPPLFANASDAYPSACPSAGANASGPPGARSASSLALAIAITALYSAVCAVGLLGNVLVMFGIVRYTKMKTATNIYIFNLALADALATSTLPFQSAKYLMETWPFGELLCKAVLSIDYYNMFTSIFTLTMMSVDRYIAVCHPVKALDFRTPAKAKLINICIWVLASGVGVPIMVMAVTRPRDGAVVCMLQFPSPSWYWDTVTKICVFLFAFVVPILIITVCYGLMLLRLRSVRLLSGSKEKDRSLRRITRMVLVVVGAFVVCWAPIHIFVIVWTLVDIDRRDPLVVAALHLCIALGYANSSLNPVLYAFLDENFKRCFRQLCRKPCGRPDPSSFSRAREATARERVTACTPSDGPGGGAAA
MEASURE: pKi
Remember, pKi is on a log scale: it is -log10 of the molar concentration.

Exercise: Any idea what pKi was measured for FCCCC1OC2(CCN(Cc3ccccc3)CC2)c2ccccc21 (stereo unspecified) ?
Key: 6.51

====

assay: Ratio of drug level in cerebellum to plasma in CD1 mouse at 400 to 600 kBq, iv after 30 mins post-injection; format: ADME, organism-based
MEASURE: Kp at 0.5 h

Exercise: Any idea what Kp at 0.5 h was measured for [18F]CCCC1OC2(CCN(Cc3ccccc3)CC2)c2ccccc21 (stereo unspecified) ?
Key: 3.86

====

test: Selectivity ratio of Ki for sigma 2 receptor in rat liver membrane to Ki for sigma 1 receptor in guinea pig brain membrane; type: cell membranes
Label yes (1) for high-side Ratio Ki (at or above 400) and no (0) for low-side Ratio Ki (below it).

Exercise: Hi team, for C=CCC1OC2(CCN(Cc3ccccc3)CC2)c2ccccc21 (stereo not drawn) , is the recorded Ratio Ki at or above 400?
Key: yes (1)

Exercise: Next up: CC(C)=CCN1CCC2(CC1)OC(CCCF)c1ccccc12 (stereo not drawn)
Key: no (0)

Exercise: Next up: FCCCC1OC2(CCN(CC3CCCCC3)CC2)c2ccccc21 (stereo not drawn)
Key: no (0)

Exercise: Next up: FCCCC1OC2(CCN(Cc3ccccc3)CC2)c2ccccc21 (stereo not drawn)
Key: yes (1)

Exercise: Next up: CCCCCCCCN1CCC2(CC1)OC(CCCF)c1ccccc12 (stereo not drawn)
Key: no (0)

Exercise: Next up: CCCCN1CCC2(CC1)OC(CCCF)c1ccccc12 (stereo not drawn)
Key: no (0)

Exercise: Next up: CCCC1OC2(CCN(Cc3ccccc3)CC2)c2ccccc21 (stereo not drawn)
Key: no (0)

====

molecular target: Sigma non-opioid intracellular receptor 1 (Cavia porcellus, UniProt Q60492); test: Displacement of [3H](+)-pentazocine from sigma 1 receptor in guinea pig brain membrane after 180 mins by scintillation counting
Sequence (Q60492 whole entry): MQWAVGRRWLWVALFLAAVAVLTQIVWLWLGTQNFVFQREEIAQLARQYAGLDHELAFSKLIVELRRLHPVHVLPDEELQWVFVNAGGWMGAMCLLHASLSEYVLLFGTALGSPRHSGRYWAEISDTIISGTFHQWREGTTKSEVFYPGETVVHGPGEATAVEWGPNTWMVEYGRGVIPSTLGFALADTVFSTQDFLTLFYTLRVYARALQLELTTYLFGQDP
Answer each item with its documented Ki.
Only the number, expressed in nM, is required.

Exercise: Query for Sigma non-opioid intracellular receptor 1 (Cavia porcellus, UniProt Q60492): what Ki does the record show for FCCCC1OC2(CCN(Cc3ccc(F)cc3)CC2)c2ccccc21 (configuration not stated) ?
Key: 1.9

Exercise: Next up: FCCCC1OC2(CCN(Cc3ccccc3)CC2)c2ccccc21 (configuration not stated)
Key: 1.4

Exercise: Next up: CC(C)=CCN1CCC2(CC1)OC(CCCF)c1ccccc12 (configuration not stated)
Key: 2

Exercise: Next up: CCCC1OC2(CCN(Cc3ccccc3)CC2)c2ccccc21 (configuration not stated)
Key: 3.2

Exercise: Next up: C=CCC1OC2(CCN(Cc3ccccc3)CC2)c2ccccc21 (configuration not stated)
Key: 1.8

Exercise: Next up: Cc1ccc(S(=O)(=O)OCCCC2OC3(CCN(Cc4ccccc4)CC3)c3ccccc32)cc1 (configuration not stated)
Key: 8.2

Exercise: Next up: FCCCC1OC2(CCN(CC3CCCCC3)CC2)c2ccccc21 (configuration not stated)
Key: 0.57

Exercise: Next up: FCCCC1OC2(CCN(C(c3ccccc3)c3ccccc3)CC2)c2ccccc21 (configuration not stated)
Key: 1110

Exercise: Next up: CCCCN1CCC2(CC1)OC(CCCF)c1ccccc12 (configuration not stated)
Key: 4.5

Exercise: Next up: CC(c1ccccc1)N1CCC2(CC1)OC(CCCF)c1ccccc12 (configuration not stated)
Key: 7.3

Exercise: Next up: CCCCCCCCN1CCC2(CC1)OC(CCCF)c1ccccc12 (configuration not stated)
Key: 37

Exercise: Next up: OCCCC1OC2(CCN(Cc3ccccc3)CC2)c2ccccc21 (configuration not stated)
Key: 3.3
